# testDescription: qHTS assay for small molecules that induce genotoxicity in human embryonic kidney cells expressing luciferase-tagged ATAD5 (AID 651632); further: nearly all actives have a fitted effect of over 15% in size
# testParameters: HEK293T ATAD5-luciferase induction, 16 h; series mostly up to 83.3 µM
Results filed as inconclusive are left out. Active and inactive are the calls of the source. The call rests on the fitted dose curve; in most records, active means well fitted activation curve with a large enough effect in the repeat runs; inconclusive means weak or mixed curves; inactive means no such curve, though single readings can be large or run the other way.
Parameter call: string, one of True for active, False for inactive

Prompt: Dear colleague, could you share the recorded outcome for O=C(c1ccccc1)c1ccc2n1CCC2C(=O)O (stereo not given) when you have a moment?
Response: False

Prompt: Dear colleague, could you share the recorded outcome for "S=C(S)NCCNC(=S)S" when you have a moment?
Response: False

Prompt: Dear colleague, could you share the recorded outcome for "CCOC(=O)C1=NN(c2ccccc2)C(=O)C1" when you have a moment?
Response: False

Prompt: Dear colleague, could you share the recorded outcome for "Cc1cccc(OCCOc2cccc(C)c2)c1" when you have a moment?
Response: False

Prompt: Dear colleague, could you share the recorded outcome for "Cc1ncsc1CCO" when you have a moment?
Response: False

Prompt: Dear colleague, could you share the recorded outcome for "CCN(CC)CCOc1ccc2c(c1)C(=O)c1cc(OCCN(CC)CC)ccc1-2" when you have a moment?
Response: False

Prompt: Dear colleague, could you share the recorded outcome for C=CC(C)(CCC=C(C)C)OC(=O)c1ccccc1 (stereo not given) when you have a moment?
Response: False

Prompt: Dear colleague, could you share the recorded outcome for "CN1CCC[C@@H]1c1cccnc1" when you have a moment?
Response: False

Prompt: Dear colleague, could you share the recorded outcome for "Oc1ccc(Cc2ccccc2)cc1" when you have a moment?
Response: False

Prompt: Dear colleague, could you share the recorded outcome for "FC(F)(F)C(F)(F)C(F)(F)C(F)(F)C(F)(F)C(F)(F)CCI" when you have a moment?
Response: False

Prompt: Dear colleague, could you share the recorded outcome for "CCCC(C)C" when you have a moment?
Response: False

Prompt: Dear colleague, could you share the recorded outcome for "CCCc1ccccc1" when you have a moment?
Response: False

Prompt: Dear colleague, could you share the recorded outcome for "COC(Cc1ccccc1)OC" when you have a moment?
Response: False

Prompt: Dear colleague, could you share the recorded outcome for "Cc1ccc(C)o1" when you have a moment?
Response: False

Prompt: Dear colleague, could you share the recorded outcome for "Nc1ccc(C(=O)Nc2ccccc2N)cc1" when you have a moment?
Response: True
